Reference for the values: patent US20250206828A1

Target: human A2aR (Homo sapiens, UniProt P29274)
Sequence (P29274 whole entry): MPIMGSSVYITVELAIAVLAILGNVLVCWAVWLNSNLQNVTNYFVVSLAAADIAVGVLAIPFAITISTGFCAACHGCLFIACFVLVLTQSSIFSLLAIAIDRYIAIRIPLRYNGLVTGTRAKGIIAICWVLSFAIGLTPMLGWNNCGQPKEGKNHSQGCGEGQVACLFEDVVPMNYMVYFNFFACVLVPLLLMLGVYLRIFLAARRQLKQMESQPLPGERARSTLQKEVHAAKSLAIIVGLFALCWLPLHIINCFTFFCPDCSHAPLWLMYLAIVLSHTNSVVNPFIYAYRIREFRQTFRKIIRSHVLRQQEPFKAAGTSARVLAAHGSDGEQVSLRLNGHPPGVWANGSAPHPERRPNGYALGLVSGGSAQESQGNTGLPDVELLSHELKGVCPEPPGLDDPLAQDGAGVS
Experiment: Binding of humanized anti-A2aR antibodies in transfected Expi293F cell supernatant to human A2aR on HEK293 cells (FACS, MFI)
Conditions: supernatant normalized to 1 μg/ml antibody; HEK293 cells stably overexpressing human A2aR; greater MFI = stronger binding; parental value average of triplicate
Property Measured: binding to human A2aR on cell surface, mean fluorescence intensity (MFI)
Answers are plain numbers.

Give binding to human A2aR on cell surface, mean fluorescence intensity (MFI) for each listed item.
1. Hu1B5-H2.1/Hu1B5-L1: humanized anti-A2aR IgG1 FES antibody; HCVR SEQ ID NO:53, LCVR SEQ ID NO:71 (antibody, V domains shown) VH: EVQLVQSGAEVKKPGASVKVSCKTSGFTFTRFWMNWVRQAPGQGLEWIGRIDPYDSETQYNHKFWDRVTMTVDTSTSTVYMELSSLRSEDTAVYYCGRSLYGKGDYWGQGTTVTVSS VL: DVVMTQSPLSLPVTLGQPASISCRSSQSIVHSNGNTYLEWFQQRPGQSPRRLIYKVSNRFSGVPDRFSGSGSGTDFTLKISRVEAEDVGVYYCFQGSHVPLTFGGGTKVEIK
2. Hu1B5-H1/Hu1B5-L2: humanized anti-A2aR IgG1 FES antibody; HCVR SEQ ID NO:51, LCVR SEQ ID NO:72 (antibody, V domains shown) VH: QVQLVQSGAEVKKPGASVKVSCKASGFTFTRFWMNWVRQAPGQGLEWMGRIDPYDSETQYNHKFWDRVTMTRDTSTSTVYMELSSLRSEDTAVYYCGRSLYGKGDYWGQGTTVTVSS VL: DVVMTQSPLSLPVTLGQPASISCRSSQSIVHSNGNTYLEWYQQRPGQSPRRLIYKVSNRFSGVPDRFSGSGSGTDFTLKISRVEAEDVGVYYCFQGSHVPLTFGGGTKVEIK
3. Hu1B5-H4/Hu1B5-L1: humanized anti-A2aR IgG1 FES antibody; HCVR SEQ ID NO:55, LCVR SEQ ID NO:71 (antibody, V domains shown, IgG1 FES constant regions) VH: EVQLVQSGAEVKKPGASVKVSCKTSGFTFTRFWMNWVRQAPGQGLEWIGRIDPYDSETQYNHKFWDRATLTVDKSSSTVYMELSSLRSEDTAVYYCGRSLYGKGDYWGQGTTVTVSS VL: DVVMTQSPLSLPVTLGQPASISCRSSQSIVHSNGNTYLEWFQQRPGQSPRRLIYKVSNRFSGVPDRFSGSGSGTDFTLKISRVEAEDVGVYYCFQGSHVPLTFGGGTKVEIK
4. Hu1B5-H2/Hu1B5-L1: humanized anti-A2aR IgG1 FES antibody; HCVR SEQ ID NO:52, LCVR SEQ ID NO:71 (antibody, V domains shown, IgG1 FES constant regions) VH: EVQLVQSGAEVKKPGASVKVSCKTSGFTFTRFWMNWVRQAPGQGLEWMGRIDPYDSETQYNHKFWDRVTMTVDTSTSTVYMELSSLRSEDTAVYYCGRSLYGKGDYWGQGTTVTVSS VL: DVVMTQSPLSLPVTLGQPASISCRSSQSIVHSNGNTYLEWFQQRPGQSPRRLIYKVSNRFSGVPDRFSGSGSGTDFTLKISRVEAEDVGVYYCFQGSHVPLTFGGGTKVEIK
5. Hu1B5-H3/Hu1B5-L1: humanized anti-A2aR IgG1 FES antibody; HCVR SEQ ID NO:54, LCVR SEQ ID NO:71 (antibody, V domains shown, IgG1 FES constant regions) VH: EVQLVQSGAEVKKPGASVKVSCKTSGFTFTRFWMNWVRQAPGQGLEWIGRIDPYDSETQYNHKFWDRATLTVDTSSSTVYMELSSLRSEDTAVYYCGRSLYGKGDYWGQGTTVTVSS VL: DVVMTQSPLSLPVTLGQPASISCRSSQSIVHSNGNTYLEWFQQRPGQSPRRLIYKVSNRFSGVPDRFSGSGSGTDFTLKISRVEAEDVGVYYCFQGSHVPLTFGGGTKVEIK

a:
1: 145; 2: 62; 3: 182; 4: 165; 5: 152

Give binding to human A2aR on cell surface, mean fluorescence intensity (MFI) for each listed item.
1. Hu1B5-H6/Hu1B5-L1: humanized anti-A2aR IgG1 FES antibody; HCVR SEQ ID NO:57, LCVR SEQ ID NO:71 (antibody, V domains shown, IgG1 FES constant regions) VH: EVQLVQSGAEVKKPGESLRISCKTSGFTFTRFWMNWVRQMPGKGLEWIGRIDPYDSETQYNHKFWDHATLSVDKSSSTVYLQWSSLKASDTAMYYCGRSLYGKGDYWGQGTTVTVSS VL: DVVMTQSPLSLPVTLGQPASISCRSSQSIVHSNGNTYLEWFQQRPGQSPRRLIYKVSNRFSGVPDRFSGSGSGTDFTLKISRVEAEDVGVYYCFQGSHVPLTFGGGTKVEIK
2. Hu1B5-H5/Hu1B5-L1: humanized anti-A2aR IgG1 FES antibody; HCVR SEQ ID NO:56, LCVR SEQ ID NO:71 (antibody, V domains shown, IgG1 FES constant regions) VH: EVQLVQSGAEVKKPGASVKVSCKTSGFTFTRFWMNWVRQAPGQGLEWIGRIDPYDSETQYAHKFWDRATLTVDKSSSTVYMELSSLRSEDTAVYYCGRSLYGKGDYWGQGTTVTVSS VL: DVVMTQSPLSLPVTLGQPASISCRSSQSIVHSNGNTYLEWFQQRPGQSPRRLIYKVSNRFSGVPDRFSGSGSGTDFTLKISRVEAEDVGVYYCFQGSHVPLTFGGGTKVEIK

a:
178
82
